Procedure Summary: Pharmacokinetic properties in ICR mouse, oral and subcutaneous, Bio-Assay (Agar well method)
Assay type: in vivo
Measurement Context: blood, sc, S.C, 40 mg/kg, average of four tests
Protocol: The pharmacokinetic properties are tested by orally administrating and subcutaneously injecting a test compound and a substance for control to a ICR Mouse with 22 g±10% weight, drawing blood after 10, 20, 30, 45, 60, 90, 120, 150, 180 and […] and analyzed by Bio-Assay (Agar well method).
Test Readout: AUC (ng·h/mL)
Give just the numeric value; ng·h/mL need not be written.

AUC lookup needed for Cc1c(F)c(N2CCNC(C)C2)cc2c1c(=O)c(C(=O)O)cn2-c1ccc(F)cn1.Cl (stereo not shown) [Example 29] , thanks.
32600

Then what about the molecule CC1CN(c2cc3c(cc2F)c(=O)c(C(=O)O)cn3-c2ccc(F)cn2)CCN1.Cl (stereo not shown) [Example 19] ?
23300

How about CN1CCN(c2cc3c(cc2F)c(=O)c(C(=O)O)cn3-c2ccc(F)cn2)CC1.Cl [Example 18] ?
63400

Here is the next molecule: CC1CN(c2nc3c(cc2F)c(=O)c(C(=O)O)cn3-c2ccc(F)cn2)CCN1.Cl (stereo not shown) [Example 14]
28100

---

Test system: Shigella sonnei ATCC 25931
Test Readout: MIC (µg/mL)
Write the value in µg/mL as a bare number.

Given Cl.O=C(O)c1cn(-c2ccc(F)cn2)c2cc(N3CCNCC3)c(F)cc2c1=O , state its recorded MIC.
0.625

How about this compound: CC1CN(c2cc3c(cc2F)c(=O)c(C(=O)O)cn3-c2ccncc2F)CC(C)N1.Cl (stereo not shown)
0.625

# repeat for CC1CN(c2nc3c(cc2F)c(=O)c(C(=O)O)cn3-c2ccncc2F)CC(C)N1.Cl (stereo not shown)
0.625

Now consider Cl.NC1CCN(c2cc3c(cc2F)c(=O)c(C(=O)O)cn3-c2ccc(F)cn2)C1 (stereo not shown) and answer again.
0.02

---

Procedure Summary: Pharmacokinetic properties in ICR mouse, oral and subcutaneous, Bio-Assay (Agar well method)
Type: in vivo
Measurement Context: blood, po, P.O, 40 mg/kg, average of four tests
Please respond with reported Tmax for every item in the list.
Numeric answer plus unit only.

Recorded Tmax of CN1CCN(c2cc3c(cc2F)c(=O)c(C(=O)O)cn3-c2ccc(F)cn2)CC1.Cl , please.
56.4 min

CC1CN(c2nc3c(cc2F)c(=O)c(C(=O)O)cn3-c2ccc(F)cn2)CCN1.Cl (stereo not drawn) , same question.
52.2 min

CC1CN(c2cc3c(cc2F)c(=O)c(C(=O)O)cn3-c2ccc(F)cn2)CCN1.Cl (stereo not drawn) ?
52.2 min

Can you handle CN1CCN(c2nc3c(cc2F)c(=O)c(C(=O)O)cn3-c2ccc(F)cn2)CC1.Cl next?
67.2 min

And the next one, Cc1c(F)c(N2CCN(C)CC2)cc2c1c(=O)c(C(=O)O)cn2-c1ccc(F)cn1.Cl ?
52.2 min

Entry to check: CC1COc2c(N3CCN(C)CC3)c(F)cc3c(=O)c(C(=O)O)cn1c23 (stereo not drawn) [Ofloxacin, reference compound]
45 min

---

Procedure Summary: Pharmacokinetic properties in ICR mouse, oral and subcutaneous, Bio-Assay (Agar well method)
Assay type: in vivo
Measurement Context: blood, po, P.O, 40 mg/kg, average of four tests
Test Readout: AUC
Record the result as number plus unit.

What does the record list as AUC for Cc1c(F)c(N2CCN(C)CC2)cc2c1c(=O)c(C(=O)O)cn2-c1ccc(F)cn1.Cl ?
62400 ng·h/mL

For CN1CCN(c2nc3c(cc2F)c(=O)c(C(=O)O)cn3-c2ccc(F)cn2)CC1.Cl then?
41000 ng·h/mL

Query CC1COc2c(N3CCN(C)CC3)c(F)cc3c(=O)c(C(=O)O)cn1c23 (stereo not drawn) [Ofloxacin, reference compound] next
12800 ng·h/mL

// same read-out, input: CC1CN(c2nc3c(cc2F)c(=O)c(C(=O)O)cn3-c2ccc(F)cn2)CCN1.Cl (stereo not drawn)
12500 ng·h/mL

What do you have for CN1CCN(c2cc3c(cc2F)c(=O)c(C(=O)O)cn3-c2ccc(F)cn2)CC1.Cl ?
42200 ng·h/mL

Proceed to CC1CN(c2cc3c(cc2F)c(=O)c(C(=O)O)cn3-c2ccc(F)cn2)CCN1.Cl (stereo not drawn)
16900 ng·h/mL

---

Procedure Summary: Pharmacokinetic properties in ICR mouse, oral and subcutaneous, Bio-Assay (Agar well method)
Format: in vivo
Measurement Context: blood, sc, S.C, 40 mg/kg, average of four tests
For each of the compounds below, state its half-life.
The answer is to be given in h; state only the numeric part.

Give the measured half-life of CC1CN(c2nc3c(cc2F)c(=O)c(C(=O)O)cn3-c2ccc(F)cn2)CCN1.Cl (stereo not drawn) .
7.28

// next record CC1CN(c2cc3c(cc2F)c(=O)c(C(=O)O)cn3-c2ccc(F)cn2)CCN1.Cl (stereo not drawn)
5.32

Please answer likewise for CN1CCN(c2nc3c(cc2F)c(=O)c(C(=O)O)cn3-c2ccc(F)cn2)CC1.Cl
11.5

---

MIC data for Shigella sonnei ATCC 25931 follow.
Field format: number, assumed µg/mL, no unit text.

Name the recorded MIC for CN1CCN(c2nc3c(cc2F)c(=O)c(C(=O)O)cn3-c2ccc(F)cn2)CC1.Cl .
0.156

Would you mind doing Cc1c(F)c(N2CCN(C)CC2)cc2c1c(=O)c(C(=O)O)cn2-c1ccc(F)cn1.Cl as well?
1.25

Query Cl.O=C(O)c1cn(-c2ccc(F)cn2)c2nc(N3CCNCC3)c(F)cc2c1=O next
0.313

Here is the next compound: Cl.N[C@H]1CCN(c2cc3c(cc2F)c(=O)c(C(=O)O)cn3-c2ccc(F)cn2)C1
0.039

Now the same for CC1CN(c2nc3c(cc2F)c(=O)c(C(=O)O)cn3-c2ccncc2F)CCN1.Cl (centres unmarked)
0.625

And for Cl.O=C(O)c1cn(-c2ccncc2F)c2nc(N3CCNCC3)c(F)cc2c1=O ?
0.313

Again, but for CN1CCN(c2c(F)cc3c(=O)c(C(=O)O)cn(-c4ccc(F)cn4)c3c2F)CC1.Cl
0.156

Please do the same for CC1CN(c2c(F)cc3c(=O)c(C(=O)O)cn(-c4ccc(F)cn4)c3c2F)CCN1.Cl (centres unmarked) as well.
0.156

---

System: Streptococcus faecalis ATCC 19433
Answer each item with its documented MIC.
A bare number is not enough; add the unit after it.

What MIC value was documented for this compound, Cl.O=C(O)c1cn(-c2ccncc2F)c2nc(N3CCNCC3)c(F)cc2c1=O ?
2.5 µg/mL

Moving on to the next compound: Cl.NC1CCN(c2cc3c(cc2F)c(=O)c(C(=O)O)cn3-c2ccc(F)cn2)C1 (centres unmarked)
1.25 µg/mL

Then this compound: Cl.NC1CCN(c2c(F)cc3c(=O)c(C(=O)O)cn(-c4ccc(F)cn4)c3c2F)C1 (centres unmarked)
1.25 µg/mL

Moving on to Cl.O=C(O)c1cn(-c2ccncc2F)c2cc(N3CCNCC3)c(F)cc2c1=O
5 µg/mL

And what about the compound CC1CN(c2nc3c(cc2F)c(=O)c(C(=O)O)cn3-c2ccncc2F)CC(C)N1.Cl (centres unmarked) ?
2.5 µg/mL

Try this compound next: Cl.N[C@H]1CCN(c2cc3c(cc2F)c(=O)c(C(=O)O)cn3-c2ccc(F)cn2)C1
0.625 µg/mL

Continue with CC1CN(c2c(F)cc3c(=O)c(C(=O)O)cn(-c4ccc(F)cn4)c3c2F)CC(C)N1.Cl (centres unmarked)
5 µg/mL

Query CN1CCN(c2cc3c(cc2F)c(=O)c(C(=O)O)cn3-c2ccc(F)cn2)CC1.Cl next
5 µg/mL

---

Procedure Summary: Pharmacokinetic properties in ICR mouse, oral and subcutaneous, Bio-Assay (Agar well method)
Type: in vivo
Measurement Context: blood, po, P.O, 40 mg/kg, average of four tests
// not satisfied strictly below 70% in bioavailability; satisfied otherwise

Textbook exercise: given the entry CC1CN(c2nc3c(cc2F)c(=O)c(C(=O)O)cn3-c2ccc(F)cn2)CCN1.Cl (stereo not drawn) [Example 14] , state whether its bioavailability is greater than or equal to 70%.
not satisfied

Try this molecule next: CC1CN(c2cc3c(cc2F)c(=O)c(C(=O)O)cn3-c2ccc(F)cn2)CCN1.Cl (stereo not drawn) [Example 19]
satisfied

Again, but for CN1CCN(c2nc3c(cc2F)c(=O)c(C(=O)O)cn3-c2ccc(F)cn2)CC1.Cl [Example 13]
satisfied

Try CC1COc2c(N3CCN(C)CC3)c(F)cc3c(=O)c(C(=O)O)cn1c23 (stereo not drawn) [Ofloxacin, reference compound] next.
satisfied

Try the molecule Cc1c(F)c(N2CCN(C)CC2)cc2c1c(=O)c(C(=O)O)cn2-c1ccc(F)cn1.Cl [Example 28]
satisfied

Data origin, for the record: patent US5496947A
